# Test system: Protein disulfide-isomerase (Homo sapiens), P07237 [H256A]
# Sequence (P07237 whole entry H256A): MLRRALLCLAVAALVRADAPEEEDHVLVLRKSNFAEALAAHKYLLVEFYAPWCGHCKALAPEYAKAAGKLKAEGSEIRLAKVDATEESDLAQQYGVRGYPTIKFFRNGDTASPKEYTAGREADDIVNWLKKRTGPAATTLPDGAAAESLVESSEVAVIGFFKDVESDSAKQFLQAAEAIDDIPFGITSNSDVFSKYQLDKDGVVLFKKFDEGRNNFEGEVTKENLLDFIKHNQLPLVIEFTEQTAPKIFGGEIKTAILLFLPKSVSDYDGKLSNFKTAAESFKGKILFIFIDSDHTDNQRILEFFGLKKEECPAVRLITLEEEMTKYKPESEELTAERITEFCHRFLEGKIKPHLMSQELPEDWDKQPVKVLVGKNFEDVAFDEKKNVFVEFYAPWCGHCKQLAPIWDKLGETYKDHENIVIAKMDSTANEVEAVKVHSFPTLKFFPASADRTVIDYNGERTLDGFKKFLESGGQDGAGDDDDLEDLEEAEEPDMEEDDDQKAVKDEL
# assay_summary: Inhibition of recombinant human N-terminal His-tagged PDI H256A mutant expressed in Escherichia coli BL21 (DE3) pLysS at 10 uM assessed as reduction in enzyme-mediated bovine insulin aggregation
Active and inactive are the calls of the source. The calls are words filed in the database; no cut-off is given here.
Labels: yes (1) (active), no (0) (inactive)

>  <smi>
CCCCCN(CCCCC)S(=O)(=O)c1ccc(C(=O)/C=C/c2cccc(O)c2)cc1

>  <qualitative_label>
yes (1)

$$$$
>  <smi>
O=C(/C=C/c1ccc(-c2cccnc2)cc1)c1cccc(O)c1

>  <qualitative_label>
no (0)

$$$$
>  <smi>
O=C(/C=C/c1ccc(-c2ccncc2)cc1)c1cccc(O)c1

>  <qualitative_label>
no (0)

$$$$
>  <smi>
N#Cc1cccc(/C=C/C(=O)c2ccc(O)cc2)c1

>  <qualitative_label>
no (0)

$$$$
>  <smi>
CCCCCN(CCCCC)S(=O)(=O)c1ccc(C(=O)/C=C/c2cccc(C#N)c2)cc1

>  <qualitative_label>
no (0)

$$$$
>  <smi>
COC(=O)c1cccc(/C=C/C(=O)c2cccc(O)c2)c1

>  <qualitative_label>
no (0)

$$$$
